- MEASURED ON: serotonin reuptake sites (Rattus norvegicus, UniProt P31652)
- Construct: the cerebral hemispheres were rapidly removed and a P2-synaptosomal fraction was prepared; from tissue; host or cells: rat (Wistar) cerebral hemispheres, P2-synaptosomal fraction
- Sequence (P31652 whole entry): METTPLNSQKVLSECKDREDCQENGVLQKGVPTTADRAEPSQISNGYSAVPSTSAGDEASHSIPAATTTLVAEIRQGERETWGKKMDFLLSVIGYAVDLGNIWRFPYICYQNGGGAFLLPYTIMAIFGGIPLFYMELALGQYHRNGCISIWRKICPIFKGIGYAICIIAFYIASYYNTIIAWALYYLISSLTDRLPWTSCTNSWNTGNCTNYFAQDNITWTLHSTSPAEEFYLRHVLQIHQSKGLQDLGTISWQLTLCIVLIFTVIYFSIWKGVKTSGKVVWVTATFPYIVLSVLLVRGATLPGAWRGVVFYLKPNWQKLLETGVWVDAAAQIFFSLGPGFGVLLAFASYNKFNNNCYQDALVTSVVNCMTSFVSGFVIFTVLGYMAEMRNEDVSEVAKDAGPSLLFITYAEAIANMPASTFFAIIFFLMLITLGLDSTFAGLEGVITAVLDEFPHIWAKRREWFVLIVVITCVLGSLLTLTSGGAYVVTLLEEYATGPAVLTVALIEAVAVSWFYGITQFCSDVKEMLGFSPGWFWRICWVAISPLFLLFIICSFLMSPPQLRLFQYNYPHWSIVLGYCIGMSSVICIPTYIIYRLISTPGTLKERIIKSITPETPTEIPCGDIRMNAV
- EXPERIMENT NOTES: In vitro functional inhibition of [3H]-serotonin reuptake in rat brain synaptosomes
- Type: biochemical
QUANTITY: IC50 (nM)
Numeric answer only, unit nM assumed.

IC50 for CCN(CC)C(=O)C1(c2ccccc2)CC1CN (centres unmarked) ?
251

---

Measured NA uptake pIC50 of individual entries
- MEASURED ON: noradrenaline reuptake sites (Rattus norvegicus, UniProt Q9WTR4)
- EXPERIMENT NOTES: In vitro functional inhibition of [3H]-noradrenalin reuptake in rat hypothalamus synaptosomes
- Format: biochemical
- CONDITION PARAMETERS: rat hypothalamus synaptosomes
Give your answer as a number; write no unit.

I am curious: what NA uptake pIC50 value has been reported for O=c1[nH]c2cccc(N3CCN(Cc4cccc(-c5ccccc5)c4)CC3)c2o1 ?
4.6
